assay: Half-life was measured after intravenous administration of […] mg/kg of drug in male Dawley rats; type: ADME, organism-based; details: male, Sprague-Dawley, rat, in vivo, 2.8 mg/kg
value-kind: half-life (h)
Reply numerically in h, unit not repeated.

input: Consider the compound "O=c1c2c(oc(O)c1[C@H](c1cccc(NS(=O)(=O)c3ccc(F)cc3)c1)C1CC1)CCCCCC2" and give its recorded half-life.
output: 2.2

----------
This section presents molecules with their documented EC50 values.
test system: Human immunodeficiency virus 1; experiment: Antiviral activity in HIV-1 infected H9 cells; type: functional; details: Human immunodeficiency virus 1, H9; read-out: ED50 (the source's name)
Give the value in µM but do not write µM after it.

Guide cases for EC50, answers given:
O=c1c2c(oc(O)c1[C@H](c1cccc(NS(=O)(=O)c3cccc4cccnc34)c1)C1CC1)CCCCCC2	1.3
O=c1c2c(oc(O)c1C(c1cccc(NS(=O)(=O)c3cccc4cccnc34)c1)C1CC1)CCCCCC2 (configuration not stated)	1.4

input: Let me know recorded EC50 for O=c1c2c(oc(O)c1C(c1cccc(NS(=O)(=O)c3ccc(Cl)c(Cl)c3)c1)C1CC1)CCCCCC2 (configuration not stated) , thanks.
output: 3.4

input: Find the measured EC50 of CN(C)c1ccc(S(=O)(=O)Nc2cccc(C(c3c(O)c4c(oc3=O)CCCCCC4)C3CC3)c2)cc1 (configuration not stated) and report it.
output: 8.7

input: Supply recorded EC50 for O=c1c2c(oc(O)c1C(c1cccc(NS(=O)(=O)c3ccccc3F)c1)C1CC1)CCCCCC2 (configuration not stated) here.
output: 5.9

input: Query EC50 for CC(C)CC(c1cccc(NS(=O)(=O)c2ccc(C#N)cc2)c1)c1c(O)c2c(oc1=O)CCCCCC2 (configuration not stated)
output: 6.1
